Sourced from patent US9992997B2

# ASSAY PROCEDURE: Hepatic persistence of Homo-SI/Hetero-SI mixtures in the female rat
# Type: in vivo, female rats
# COND: female, Sprague Dawley, rat, liver, oral, 3.8 mg/kg, D + 3, read-out: Hepatic content of total bromadiolone
# Method: Hepatic Persistence of the Homo-SI and Hetero-SI Configurational Stereoisomers of Bromadiolone in the Female Rat […] The procedure with the female rats is the same as that with the male rats as described above. The mean hepatic contents of the Homo-SI and Hetero-SI isomers of the female rats are analysed by HPLC and are given in Table 4 below.
MEASUREMENT NAME: concentration at 3 day
Provide the measurement as a number trailed by its unit.

Q: Using the record for O=c1oc2ccccc2c(O)c1C(CC(O)c1ccc(-c2ccc(Br)cc2)cc1)c1ccccc1 (stereo not shown) [Mixture 20/80, reference compound] , report its concentration at 3 day.
Ans: 24200 ng/g

###

# ASSAY PROCEDURE: Hepatic persistence of Homo-SI/Hetero-SI mixtures in the male rat
# Format: in vivo, male Sprague Dawley rats
# COND: male, Sprague Dawley, rat, liver, oral, 3.8 mg/kg, D + 1, read-out: Hepatic content of total bromadiolone
MEASUREMENT NAME: concentration at 1 day

Q: // returns reported concentration at 1 day for input O=c1oc2ccccc2c(O)c1C(CC(O)c1ccc(-c2ccc(Br)cc2)cc1)c1ccccc1 (stereo not shown) [Mixture 80/20]
Ans: 7850 ng/g

###

# ASSAY PROCEDURE: Hepatic persistence of Homo-SI/Hetero-SI mixtures in the female rat
# Format: in vivo, female rats
# COND: female, Sprague Dawley, rat, liver, oral, 3.8 mg/kg, D + 1, read-out: Hepatic content of total bromadiolone
MEASUREMENT NAME: concentration at 1 day
Include the unit after the number when you answer.

Q: Please look up its concentration at 1 day: O=c1oc2ccccc2c(O)c1C(CC(O)c1ccc(-c2ccc(Br)cc2)cc1)c1ccccc1 (stereo not shown) [Mixture 20/80, reference compound]
Ans: 32500 ng/g

###

# ASSAY PROCEDURE: Hepatic persistence of Homo-SI/Hetero-SI mixtures in the male rat
# Format: in vivo, male Sprague Dawley rats
# COND: male, Sprague Dawley, rat, liver, oral, 3.8 mg/kg, D + 10, read-out: Hepatic content of total bromadiolone
MEASUREMENT NAME: concentration at 10 day (ng/g)
Provide only the numeric value, understood in ng/g.

Q: Return reported concentration at 10 day; argument: O=c1oc2ccccc2c(O)c1C(CC(O)c1ccc(-c2ccc(Br)cc2)cc1)c1ccccc1 (stereo not shown) [Mixture 4/96, reference compound]
Ans: 2390

###

# ASSAY PROCEDURE: Hepatic persistence in the rat after single tube-feeding of Homo-SI or Hetero-SI
# Format: in vivo, Sprague Dawley rats
# COND: Sprague Dawley, rat, liver, oral, 3 mg/kg, D + 21; 3.0 mg/kg tube-fed on D0; read-out: Hepatic content
MEASUREMENT NAME: concentration at 21 day
Please make sure the unit comes right after the number.

Q: Reported concentration at 21 day for O=c1oc2ccccc2c(O)c1C(CC(O)c1ccc(-c2ccc(Br)cc2)cc1)c1ccccc1 (stereo not shown) : what is it?
Ans: 920 ng/g

###

Some compounds, each annotated with its measured pKi.
# TGT: Vitamin K Epoxide Reductase Complex 1 (VKORC1) (Rattus norvegicus)
# Construct: catalysed by microsomes of the livers of rats sensitive to anti-vitamin K (AVK) compounds
# Sequence (Q6TEK4 whole entry, one chain of several): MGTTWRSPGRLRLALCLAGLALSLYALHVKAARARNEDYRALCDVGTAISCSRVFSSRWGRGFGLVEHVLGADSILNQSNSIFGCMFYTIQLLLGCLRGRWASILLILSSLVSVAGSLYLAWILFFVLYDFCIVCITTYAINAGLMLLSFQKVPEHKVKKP
# ASSAY PROCEDURE: Inhibition of vitamin K epoxide reductase (VKOR) activity in vitro, rat liver microsomes
# COND: microsomes of livers of rats sensitive to AVK; preparations 96% pure; read-out: inhibition constants (Ki) of VKOR activity
pKi: −log10 of the molar value.

- COMPOUND: "O=c1oc2ccccc2c(O)c1C(CC(O)c1ccc(-c2ccc(Br)cc2)cc1)c1ccccc1 (centres unmarked) [Hetero-SI, reference compound]"
  TGT: "Vitamin K Epoxide Reductase Complex 1 (VKORC1) (Rattus norvegicus)"
  pKi: "~7.30"

Q: # lookup: pKi of O=c1oc2ccccc2c(O)c1C(CC(O)c1ccc(-c2ccc(Br)cc2)cc1)c1ccccc1 (centres unmarked) [Homo-SI]
Ans: ~7.52
